// pIC50 lookup, one value per entry
Molecular target: UniProtKB Q06418
Sequence (Q06418 whole entry): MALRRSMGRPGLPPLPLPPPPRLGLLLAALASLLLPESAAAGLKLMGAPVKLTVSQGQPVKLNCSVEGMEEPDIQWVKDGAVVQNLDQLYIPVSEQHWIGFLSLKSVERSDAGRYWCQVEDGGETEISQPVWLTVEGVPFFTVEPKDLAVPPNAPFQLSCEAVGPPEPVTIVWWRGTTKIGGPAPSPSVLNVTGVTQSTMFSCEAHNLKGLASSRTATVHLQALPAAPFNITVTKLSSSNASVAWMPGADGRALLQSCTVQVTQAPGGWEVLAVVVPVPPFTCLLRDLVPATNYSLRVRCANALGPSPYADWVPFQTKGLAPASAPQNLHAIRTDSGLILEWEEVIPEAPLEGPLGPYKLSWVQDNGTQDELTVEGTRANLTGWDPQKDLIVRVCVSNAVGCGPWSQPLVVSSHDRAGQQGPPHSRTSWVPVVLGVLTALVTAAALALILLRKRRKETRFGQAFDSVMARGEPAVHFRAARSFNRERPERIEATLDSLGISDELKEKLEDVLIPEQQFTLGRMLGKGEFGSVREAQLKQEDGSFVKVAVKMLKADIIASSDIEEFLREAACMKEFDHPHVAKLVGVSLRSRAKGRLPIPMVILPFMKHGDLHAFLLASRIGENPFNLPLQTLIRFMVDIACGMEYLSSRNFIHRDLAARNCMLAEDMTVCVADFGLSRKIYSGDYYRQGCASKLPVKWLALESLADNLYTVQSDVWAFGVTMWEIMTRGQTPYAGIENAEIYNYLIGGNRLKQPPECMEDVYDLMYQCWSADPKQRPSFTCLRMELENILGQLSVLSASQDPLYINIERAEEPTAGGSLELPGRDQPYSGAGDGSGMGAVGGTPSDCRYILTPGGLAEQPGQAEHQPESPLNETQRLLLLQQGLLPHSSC
The meaning of pIC50 here: minus log10 of the concentration in molar units.

Data request: Recorded pIC50 for "COc1ccccc1CNc1ncc(C(=O)NCCNC(C)=O)c(NC2CCCC2)n1" , please?
Data returned: 6.42

Continuing:
Data request: Recorded pIC50 for "COc1ccccc1CNc1ncc(C(=O)NCCCO)c(NC2CCCC2)n1" , please?
Data returned: 6.80

Data request: Recorded pIC50 for "Cc1cc(-c2cnc(Nc3cc(Cl)cc(Cl)c3)nc2NC2CCNCC2)on1" , please?
Data returned: 7.04

* * *

Experiment: Half life in rat liver microsomes
Format: ADME, Microsome
// half-life lookup, one value per entry
Quick reminder: number only, in min, skip the unit.

Data request: Recorded half-life for "Cc1cc(-c2cnc(Nc3cc(Cl)cc(Cl)c3)nc2NC2CCNCC2)on1" , please?
Data returned: 3

Data request: Recorded half-life for CN1CCC(NC(=O)c2cnc(NCc3cc(Cl)ccc3Cl)nc2NC2CCC(N(C)C)CC2)CC1 (centres undefined) , please?
Data returned: 57

Data request: Recorded half-life for "COc1ccccc1CNc1ncc(C(=O)NCCc2nnn[nH]2)c(NC2CCCC2)n1" , please?
Data returned: 22

Data request: Recorded half-life for "O[C@@H]1COC[C@H]1Nc1nc(Nc2cc(Cl)cc(Cl)c2)ncc1-c1ccc(F)cc1" , please?
Data returned: 60

Data request: Recorded half-life for "CN1CCC(NC(=O)c2cnc(NCc3cc(Cl)ccc3Cl)nc2NC2CCCC2)CC1" , please?
Data returned: 60

Continuing:
Data request: Recorded half-life for "COc1ccccc1CNc1ncc(C(=O)NC2CCN(C)CC2)c(NC2CCCC2)n1" , please?
Data returned: 56

Data request: Recorded half-life for "COc1ccccc1CNc1ncc(C(=O)NCCCN2CCCC2=O)c(NC2CCCC2)n1" , please?
Data returned: 16

Data request: Recorded half-life for "CN1CCC(NC(=O)c2cnc(NCc3cc(Cl)ccc3Cl)nc2NC2CCNCC2)CC1" , please?
Data returned: 60

Data request: Recorded half-life for "CN1CCC(NC(=O)c2cnc(Nc3cc(Cl)cc(Cl)c3)nc2N[C@@H]2COC[C@H]2O)CC1" , please?
Data returned: 60

* * *

Biological target: Aurora kinase A (Homo sapiens, UniProt O14965)
Sequence (O14965 whole entry): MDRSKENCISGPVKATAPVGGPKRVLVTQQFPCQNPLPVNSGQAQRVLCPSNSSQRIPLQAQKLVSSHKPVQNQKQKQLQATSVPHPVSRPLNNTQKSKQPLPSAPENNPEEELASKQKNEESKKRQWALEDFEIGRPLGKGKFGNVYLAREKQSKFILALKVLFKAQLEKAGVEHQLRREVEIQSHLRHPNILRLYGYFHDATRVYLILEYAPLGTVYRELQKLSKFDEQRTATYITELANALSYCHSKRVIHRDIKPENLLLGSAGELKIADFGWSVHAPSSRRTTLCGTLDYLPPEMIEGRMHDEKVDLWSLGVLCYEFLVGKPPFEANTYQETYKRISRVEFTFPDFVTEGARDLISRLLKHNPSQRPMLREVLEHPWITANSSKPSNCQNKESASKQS
Value kind: IC50 (µM)
Quick reminder: number only, in µM, skip the unit.

Data request: Recorded IC50 for Cc1cc(-c2cnc(Nc3cc(Cl)cc(Cl)c3)nc2NC2CCC(N(C)C)CC2)on1 (stereo unspecified) , please?
Data returned: 1.55

* * *

Target: Tyrosine-protein kinase ABL1 (Homo sapiens)
Sequence (P00519 whole entry): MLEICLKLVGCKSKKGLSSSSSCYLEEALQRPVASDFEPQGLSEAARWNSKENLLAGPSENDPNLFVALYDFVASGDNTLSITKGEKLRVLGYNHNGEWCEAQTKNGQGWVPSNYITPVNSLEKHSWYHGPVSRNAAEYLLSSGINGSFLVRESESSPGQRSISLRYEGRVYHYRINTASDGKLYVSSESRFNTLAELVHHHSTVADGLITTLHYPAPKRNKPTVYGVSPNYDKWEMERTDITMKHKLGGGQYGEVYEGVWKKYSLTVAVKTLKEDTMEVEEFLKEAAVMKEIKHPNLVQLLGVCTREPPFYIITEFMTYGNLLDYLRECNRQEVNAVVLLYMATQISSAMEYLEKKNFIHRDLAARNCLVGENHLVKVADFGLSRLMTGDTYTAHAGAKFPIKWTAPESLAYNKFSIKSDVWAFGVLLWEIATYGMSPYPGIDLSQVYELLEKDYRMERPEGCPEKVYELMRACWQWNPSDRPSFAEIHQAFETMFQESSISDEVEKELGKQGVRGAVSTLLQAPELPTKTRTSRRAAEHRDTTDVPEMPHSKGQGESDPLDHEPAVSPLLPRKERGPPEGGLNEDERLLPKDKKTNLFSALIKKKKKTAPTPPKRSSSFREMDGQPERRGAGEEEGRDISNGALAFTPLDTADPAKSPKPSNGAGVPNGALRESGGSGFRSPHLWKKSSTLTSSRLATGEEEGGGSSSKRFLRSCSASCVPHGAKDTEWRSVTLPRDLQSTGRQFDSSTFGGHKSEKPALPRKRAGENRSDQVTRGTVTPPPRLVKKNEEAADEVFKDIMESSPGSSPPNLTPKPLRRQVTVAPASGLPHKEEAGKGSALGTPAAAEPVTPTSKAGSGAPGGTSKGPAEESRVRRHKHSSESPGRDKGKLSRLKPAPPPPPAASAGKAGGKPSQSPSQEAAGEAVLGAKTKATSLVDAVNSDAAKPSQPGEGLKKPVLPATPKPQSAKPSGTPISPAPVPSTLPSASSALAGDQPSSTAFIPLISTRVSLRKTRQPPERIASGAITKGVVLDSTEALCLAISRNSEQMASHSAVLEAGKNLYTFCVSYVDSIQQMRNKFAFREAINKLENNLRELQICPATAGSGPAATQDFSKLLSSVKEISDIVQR
Value kind: pIC50
The meaning of pIC50 here: minus log10 of the concentration in molar units.

Data request: API: value(readout=pIC50, system=Tyrosine-protein kinase ABL1 (Homo sapiens)) for record CN1CCC(NC(=O)c2cnc(Nc3cc(Cl)cc(Cl)c3)nc2NC2CCC(N(C)C)CC2)CC1 (stereo unspecified)
Data returned: 5.12

* * *

Target: Ephrin type-A receptor 2 (Homo sapiens, UniProt P29317)
Sequence (P29317 whole entry): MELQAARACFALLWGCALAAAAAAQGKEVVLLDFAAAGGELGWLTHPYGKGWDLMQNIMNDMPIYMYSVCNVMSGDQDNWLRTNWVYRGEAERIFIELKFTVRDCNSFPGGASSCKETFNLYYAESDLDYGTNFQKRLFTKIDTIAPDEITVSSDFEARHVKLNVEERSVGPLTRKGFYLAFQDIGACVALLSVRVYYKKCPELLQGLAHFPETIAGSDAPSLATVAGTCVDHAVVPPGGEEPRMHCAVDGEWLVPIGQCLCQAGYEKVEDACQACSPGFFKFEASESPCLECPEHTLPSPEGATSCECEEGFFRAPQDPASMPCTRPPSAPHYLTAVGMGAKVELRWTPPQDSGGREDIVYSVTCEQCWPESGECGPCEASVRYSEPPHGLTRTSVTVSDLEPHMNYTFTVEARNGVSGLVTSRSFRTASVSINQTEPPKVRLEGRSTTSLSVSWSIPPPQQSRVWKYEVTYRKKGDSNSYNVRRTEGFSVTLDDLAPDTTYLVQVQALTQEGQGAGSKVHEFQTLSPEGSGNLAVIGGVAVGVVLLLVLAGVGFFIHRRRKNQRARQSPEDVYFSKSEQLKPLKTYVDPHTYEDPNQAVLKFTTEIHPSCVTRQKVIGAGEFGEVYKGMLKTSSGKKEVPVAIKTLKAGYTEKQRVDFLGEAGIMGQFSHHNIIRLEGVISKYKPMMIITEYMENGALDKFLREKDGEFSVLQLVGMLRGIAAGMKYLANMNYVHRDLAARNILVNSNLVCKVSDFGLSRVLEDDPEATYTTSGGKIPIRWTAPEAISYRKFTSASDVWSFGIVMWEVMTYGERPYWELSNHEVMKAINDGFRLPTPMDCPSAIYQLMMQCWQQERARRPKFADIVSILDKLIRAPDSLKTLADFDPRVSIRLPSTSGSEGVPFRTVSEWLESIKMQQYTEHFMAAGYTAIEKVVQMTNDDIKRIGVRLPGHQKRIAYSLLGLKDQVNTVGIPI
Value kind: pIC50
The meaning of pIC50 here: minus log10 of the concentration in molar units.

Data request: Recorded pIC50 for Cc1cc(-c2cnc(Nc3cc(Cl)cc(Cl)c3)nc2NC2CCC(N(C)C)CC2)on1 (stereo unspecified) , please?
Data returned: 5.61

* * *

Assay: Volume of distribution at steady state in Sprague-Dawley rat at 1 mg/kg, iv and 5 mg/kg, po
Assay type: ADME, organism-based
Conditions: in vivo, read-out: Vdss
// Vd lookup, one value per entry
Quick reminder: number only, in L/kg, skip the unit.

Data request: Recorded Vd for "COc1ccccc1CNc1ncc(C(=O)NC2CCN(C)CC2)c(NC2CCCC2)n1" , please?
Data returned: 18

Data request: Recorded Vd for "CN1CCC(NC(=O)c2cnc(Nc3cc(Cl)cc(Cl)c3)nc2N[C@@H]2COC[C@H]2O)CC1" , please?
Data returned: 2.7

Data request: Recorded Vd for "CN1CCC(NC(=O)c2cnc(NCc3cc(Cl)ccc3Cl)nc2NC2CCNCC2)CC1" , please?
Data returned: 0.4

Data request: Recorded Vd for "CN1CCC(NC(=O)c2cnc(NCc3cc(Cl)ccc3Cl)nc2NC2CCCC2)CC1" , please?
Data returned: 25

* * *

Molecular target: CDK6/cyclin D3 (Homo sapiens, UniProt Q00534)
Sequence (P30281 whole entry): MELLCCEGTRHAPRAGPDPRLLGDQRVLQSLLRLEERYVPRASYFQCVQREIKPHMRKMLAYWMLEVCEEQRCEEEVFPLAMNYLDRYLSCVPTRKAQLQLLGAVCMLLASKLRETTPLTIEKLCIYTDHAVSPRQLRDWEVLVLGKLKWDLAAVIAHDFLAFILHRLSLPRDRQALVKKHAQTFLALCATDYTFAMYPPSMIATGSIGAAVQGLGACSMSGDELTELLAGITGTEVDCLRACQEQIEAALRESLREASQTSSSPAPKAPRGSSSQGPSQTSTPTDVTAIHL
Sequence (Q00534 whole entry): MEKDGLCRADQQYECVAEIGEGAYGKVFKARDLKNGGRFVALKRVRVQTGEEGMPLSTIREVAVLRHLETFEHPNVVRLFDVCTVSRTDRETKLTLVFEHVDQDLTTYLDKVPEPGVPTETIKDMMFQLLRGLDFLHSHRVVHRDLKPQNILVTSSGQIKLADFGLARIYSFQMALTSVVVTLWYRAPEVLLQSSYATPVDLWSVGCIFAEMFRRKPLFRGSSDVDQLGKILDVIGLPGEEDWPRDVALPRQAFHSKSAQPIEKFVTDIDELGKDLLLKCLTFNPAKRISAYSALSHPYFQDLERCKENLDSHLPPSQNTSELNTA
Assay: Inhibition of CDK6/cyclin D3 (unknown origin) in presence of ATP
Type: protein-complex assay
Value kind: pIC50
The meaning of pIC50 here: minus log10 of the concentration in molar units.

Data request: API: value(readout=pIC50, system=CDK6/cyclin D3 (Homo sapiens, UniProt Q00534)) for record Cc1cc(-c2cnc(Nc3cc(Cl)cc(Cl)c3)nc2NC2CCC(N(C)C)CC2)on1 (stereo unspecified)
Data returned: 4.52

* * *

Experiment: Clearance in Sprague-Dawley rat at 1 mg/kg, iv and 5 mg/kg, po
Format: ADME, organism-based
Details: in vivo
// clearance lookup, one value per entry
Quick reminder: number only, in mL/min/kg, skip the unit.

Some solved cases for reference:
Data request: Recorded clearance for "COc1ccccc1CNc1ncc(C(=O)NC2CCN(C)CC2)c(NC2CCCC2)n1" , please?
Data returned: 73

Data request: Recorded clearance for "CN1CCC(NC(=O)c2cnc(NCc3cc(Cl)ccc3Cl)nc2NC2CCNCC2)CC1" , please?
Data returned: 40

Data request: Recorded clearance for "CN1CCC(NC(=O)c2cnc(Nc3cc(Cl)cc(Cl)c3)nc2N[C@@H]2COC[C@H]2O)CC1" , please?
Data returned: 55

Below: the item to evaluate.
Data request: Recorded clearance for "CN1CCC(NC(=O)c2cnc(NCc3cc(Cl)ccc3Cl)nc2NC2CCCC2)CC1" , please?
Data returned: 40

* * *

Experiment: Aqueous solubility of the compound at ph 6.5
Type: physicochemical
Please use label 1 whenever solubility is not below 40 µM, and label 0 whenever it is.

Solved entries (count: 5):
Data request: Is solubility for "O[C@@H]1COC[C@H]1Nc1nc(Nc2cc(Cl)cc(Cl)c2)ncc1Br" at or above 40 µM?
Data returned: label 0

Data request: Is solubility for "COc1ccccc1CNc1ncc(C(=O)NCCCCN(C)C)c(NC2CCCC2)n1" at or above 40 µM?
Data returned: label 1

Data request: Is solubility for "CC[C@@H](CO)Nc1nc(Nc2cc(Cl)cc(Cl)c2)ncc1C(=O)NC1CCN(C)CC1" at or above 40 µM?
Data returned: label 0

Data request: Is solubility for "CN1CCC(NC(=O)c2cnc(NCc3cc(Cl)ccc3Cl)nc2NC2CCCC2)CC1" at or above 40 µM?
Data returned: label 0

Data request: Is solubility for Cc1cc(-c2cnc(Nc3cc(Cl)cc(Cl)c3)nc2NC2CCC(N(C)C)CC2)on1 (stereo not given) at or above 40 µM?
Data returned: label 0

Continuing:
Data request: Is solubility for "COc1ccccc1CNc1ncc(C(=O)NCCc2nnn[nH]2)c(NC2CCCC2)n1" at or above 40 µM?
Data returned: label 0

Data request: Is solubility for "O[C@@H]1COC[C@H]1Nc1nc(Nc2cc(Cl)cc(Cl)c2)ncc1-c1ccc(F)cc1" at or above 40 µM?
Data returned: label 1

Data request: Is solubility for "Cc1cc(-c2cnc(Nc3cc(Cl)cc(Cl)c3)nc2NC2CCNCC2)on1" at or above 40 µM?
Data returned: label 0

Data request: Is solubility for CN1CCC(NC(=O)c2cnc(Nc3cc(Cl)cc(Cl)c3)nc2NC2CCC(N(C)C)CC2)CC1 (stereo not given) at or above 40 µM?
Data returned: label 1
